Assay: NCI Yeast Anticancer Drug Screen. Data for the rad18 strain (AID 177)
Conditions: S. cerevisiae rad18 mutant growth inhibition; at 1.2 µM; hits give high values
About 79,000 compounds went through this panel and 15% of them were active in at least one assay; those are over-represented in the sample as a whole.
attributeMeasured: growth inhibition (%)
Value expressed in %; do not type the unit.

Look over these answered cases.
Task item: Need growth inhibition, item `CN(C)CCN1C(=O)c2cccc3cc([N+](=O)[O-])cc(c23)C1=O`
Reply: 10

Task item: Which growth inhibition is listed for `O=C(NCCCCCN1CCC2(CCCCC2)CC1)C(C1CCCCC1)C1CCCCC1` ?
Reply: 8

Task item: I'd like to know its growth inhibition. The compound in question is `S=c1[nH]nc(-c2ccc(Cl)cc2)s1`
Reply: -15

Task item: Could you share which growth inhibition value was measured for `CCn1ncc(N=O)c1N` ?
Reply: 1

Task item: Data request, read-out growth inhibition, for `N#CC(=S)Nc1cccc(Cl)c1`
Reply: 1

New cases:
Task item: I'd like to know its growth inhibition. The compound in question is OC(CN1CCCCC1)c1cc(Cl)c(Cl)c(Cl)c1 (centres undefined)
Reply: 5

Task item: Can you look up the measured growth inhibition of `Cc1cc(Cl)ccc1NC(=O)/C(Cl)=C1/Sc2ccccc2NC1=O` for me?
Reply: 0

Numbers sourced from PubChem BioAssay (NCI).
